system: Human immunodeficiency virus 1; assay: Antiviral activity against multidrug-resistant HIV1-G infected in phytohemagglutinin-activated human PBMC cells assessed as inhibition of virus-induced cytopathic effect measured after 7 days by MTT assay; type: functional, organism-based; conditions: Human immunodeficiency virus 1, G, 168 h
Form field: EC50 (one value per entry).
property.name: EC50 (nM)

smiles.representation: COc1ccc(S(=O)(=O)N(CC(C)C)C[C@@H](O)[C@H](Cc2ccccc2)NC(=O)O[C@H]2CO[C@H]3OCC(F)(F)[C@H]32)cc1
reported.value: 4

smiles.representation: COc1ccc(S(=O)(=O)N(CC(C)C)C[C@@H](O)[C@H](Cc2ccccc2)NC(=O)O[C@H]2CO[C@H]3O[C@@H]4OCC[C@@H]4[C@H]32)cc1
reported.value: 2.6

smiles.representation: CC(C)CN(C[C@@H](O)[C@H](Cc1ccccc1)NC(=O)O[C@H]1CCOC1)S(=O)(=O)c1ccc(N)cc1
reported.value: 310

smiles.representation: CC(C)CN(C[C@@H](O)[C@H](Cc1ccccc1)NC(=O)O[C@H]1CO[C@H]2OCC(F)(F)[C@H]21)S(=O)(=O)c1ccc(N)cc1
reported.value: 4

* * *

Form field: pKi (one value per entry).
biological target: Human immunodeficiency virus type 1 protease (Human immunodeficiency virus 1); assay: Binding affinity to HIV1 recombinant wild type protease expressed in Escherichia coli BL21(DE3) assessed as inhibition constant
pKi: −log10 of the molar value.
property.name: pKi

smiles.representation: CC(C)CN(C[C@@H](O)[C@H](Cc1ccccc1)NC(=O)O[C@H]1CO[C@H]2OCC[C@H]21)S(=O)(=O)c1ccc(C(N)=O)cc1
target.of.assay: Human immunodeficiency virus type 1 protease (Human immunodeficiency virus 1)
property.name: pKi
reported.value: 11.05
--
smiles.representation: CC(C)CN(C[C@@H](O)[C@H](Cc1ccccc1)NC(=O)O[C@H]1CO[C@H]2OCC[C@H]21)S(=O)(=O)c1ccc(C(=O)O)cc1
target.of.assay: Human immunodeficiency virus type 1 protease (Human immunodeficiency virus 1)
property.name: pKi
reported.value: 10.90

* * *

biological target: UniProtKB Q72874; test: Inhibition of recombinant wildtype HIV1 Protease using Abz-Thr-Ile-Nle-Phe(NO2)-Gln-Arg peptide as substrate
pIC50: −log10 of the molar value.

smiles.representation: CC(C)(C)NC(=O)[C@@H]1C[C@@H]2CCCC[C@@H]2CN1C[C@@H](O)[C@@H](NC(=O)[C@H](CC(N)=O)NC(=O)c1ccc2ccccc2n1)c1cccs1
pIC50: 5.30
--
smiles.representation: Cc1c(O)cccc1C(=O)N[C@@H](c1cccs1)[C@H](O)CN1C[C@H]2CCCC[C@H]2C[C@H]1C(=O)NC(C)(C)C
pIC50: 4.52

* * *

test system: Human immunodeficiency virus 1; assay: Ratio of EC50 for antiviral activity against HIV1-C to EC50 for antiviral activity against wild type HIV1 ERS104pre; format: functional
property.name: Ratio EC50

molecule: COC(=O)N[C@H](C(=O)N[C@@H](Cc1ccccc1)[C@@H](O)CN(Cc1ccc(-c2ccccn2)cc1)NC(=O)[C@@H](NC(=O)OC)C(C)(C)C)C(C)(C)C [ATAZANAVIR]
property.name: Ratio EC50
reported.value: 14
--
molecule: COc1ccc(S(=O)(=O)N(CC(C)C)C[C@@H](O)[C@H](Cc2ccccc2)NC(=O)O[C@H]2CO[C@H]3OCC(F)(F)[C@H]32)cc1
property.name: Ratio EC50
reported.value: 1
--
molecule: COc1ccc(S(=O)(=O)N(CC(C)C)C[C@@H](O)[C@H](Cc2ccccc2)NC(=O)O[C@@H]2CO[C@@H]3O[C@H]4OCC[C@H]4[C@@H]32)cc1
property.name: Ratio EC50
reported.value: 1
